Values compiled from patent US20100305098A1.

# targetOrTestSystem: human T-bet (Homo sapiens)
# Sequence (Q9UL17 whole entry): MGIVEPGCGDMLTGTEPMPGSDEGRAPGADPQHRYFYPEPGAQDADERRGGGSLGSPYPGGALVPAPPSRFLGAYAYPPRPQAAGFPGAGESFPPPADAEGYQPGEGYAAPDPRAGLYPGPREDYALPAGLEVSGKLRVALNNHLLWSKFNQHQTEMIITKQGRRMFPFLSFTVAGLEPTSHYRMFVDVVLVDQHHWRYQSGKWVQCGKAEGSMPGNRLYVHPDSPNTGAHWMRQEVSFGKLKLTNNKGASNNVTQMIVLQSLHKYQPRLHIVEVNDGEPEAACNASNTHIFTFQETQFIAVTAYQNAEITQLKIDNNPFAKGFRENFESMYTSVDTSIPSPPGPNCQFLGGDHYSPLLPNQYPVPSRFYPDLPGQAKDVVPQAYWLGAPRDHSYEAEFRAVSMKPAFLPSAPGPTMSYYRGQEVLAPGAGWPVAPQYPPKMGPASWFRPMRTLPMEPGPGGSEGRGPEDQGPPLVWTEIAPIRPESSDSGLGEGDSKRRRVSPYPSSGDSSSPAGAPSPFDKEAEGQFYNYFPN
# experimentSummary: HEKT-bet-luc assay (normalized)
# settings: reference compound used for normalization; read-out: established potency of the reference compound (IC50)
pIC50: −log10 of the molar value.

smilesCode | pIC50
COCCN1C(=O)N2Cc3cc(OC)cc(OC)c3C(C)(C)C=C2C12CCN(Cc1cc(OC)cc(OC)c1)CC2 | 7.46

* * *

# Test system: activated human MoDCs
# experimentSummary: Human MoDC IL-23 secretion assay
# Type: cell-based
# settings: PGE1-OH (10 nM); LPS/R-848 activated human MoDCs, 24 h; read-out: IC50 (Ave. of two experiments), inhibiting PGE1-OH enhanced IL-23 production
# Method: In vitro human monocytes derived DC assay. […] IL-23 in culture supernatants were measured by ELISA (eBioscience). Human CD14^+ monocytes were differentiated into imDCs with GM-CSF plus IL-4 for 7 days and re-stimulated with LPS/R-848 in the presence or absence of exogenous PGE1-OH (1-100 nM) and with and without ER-819762 (FIG. 13) or ER-819924 or anti-PGE2 Ab (FIG. 14) for 24 h. IL-23 secretion in culture supernatants was measured by ELISA. […]
pIC50: −log10 of the molar value.

molecule | boundOperator | pIC50
CCN1C(=O)N2Cc3cc(OC)cc(OC)c3[C@@H](C)C=C2C12CCN(Cc1c[nH]nc1C)CC2 [ER-819826-01] | = | 6.73
CCN1C(=O)N2Cc3cc(OC)cc(OC)c3[C@@H](C)C=C2C12CCN(Cc1cccn1C)CC2 [ER-819924] | > | 6.70
CCN1C(=O)N2Cc3cc(OC)cc(OC)c3[C@@H](C)C=C2C12CCN(Cc1nc(C)oc1C)CC2 [ER-811283-01] | = | 7.24
